Recorded values, source patent US20060235215A1.

target-desc: T1, O. sativa 14-3-3 Protein Homolog GF14-c, bait fragment aa 1-150 (Oryza sativa, UniProt Q6ZKC0 1-150)
T1 construct: bait; also called OsGF14-c; PN12464
T1 sequence: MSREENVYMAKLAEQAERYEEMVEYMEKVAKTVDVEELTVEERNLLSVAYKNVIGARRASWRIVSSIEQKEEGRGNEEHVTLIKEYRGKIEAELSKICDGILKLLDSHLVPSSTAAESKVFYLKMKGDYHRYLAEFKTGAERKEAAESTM
experiment-notes: yeast two-hybrid
outcome-measure: binding result

Novel Protein PN22866, Fragment, Similar to A. thaliana Vacuolar ATP Synthase Subunit C, prey clone aa 95-305 (other, prey; AD fusion; input trait library; also called OsPN22866) LLALSDDLVKSNVFIEGVSHKIRRQIEELERAGGVESGALTVDGVPVDTYLTRFVWDEGKYPTMSPLKEIAGSIQSQVSKIEDDMKVRGAEYNNVRSQLNAINRKQTGSLAVRDLSNLVKPEDMVTSEHLVTLLAVVPQYSQKDWLSSYESLDTFVVPRSSKKLYEDNEYALYTVTLFAKVVDNFKVRAREKGFQVRDFEYSSEAQESRKE = binds
OsContig4331, O. sativa Putative 33 kDa Oxygen-Evolving Protein of Photosystem II, prey clone aa 90-169 (other, prey; AD fusion; input trait library; also called OsPN23059) PRRLTFDEIQSKTYMEVKGTGTANQCPTVEGGVDSFAFKAGKYNMKKFCLEPTSFTVKAEGVAKNAPPEFQKTKLMTRLT = binds
